Just for reference, patent US20210214410A1 is where these values come from.

# Study target: human interleukin 13 receptor alpha 1 (IL-13Rα1), biotinylated ectodomain (human) (UniProt P78552)
# Assay name: SPR (Biacore T100), biotinylated receptor on SA chip, 1:1 kinetic fit
The following binders are shown together with reported pKd values.
Recall that pKd is obtained by taking minus log10 of the concentration measured in molar.

Guide cases for pKd, answers given:
| Binder | Observed property | Result number |
| --- | --- | --- |
| B2 (ligand, also called IL-13 variant B2 (V18I, R86T, D87G, T88S, L101Y, K104R, K105A)) cytokine: PGPVPPSTALRELIEELINITQNQKAPLCNGSMVWSINLTAGMYCAALESLINVSGCSAIEKTQRMLSGFCPHKVSAGQFSSLHVTGSKIEVAQFVKDLLYHLRALFREGQFN | pKd | 9.56 |
| A7 (ligand, also called IL-13 variant A7 (L10I, V18I, D87G, T88S, L101H, K104R, K105A)) cytokine: PGPVPPSTAIRELIEELINITQNQKAPLCNGSMVWSINLTAGMYCAALESLINVSGCSAIEKTQRMLSGFCPHKVSAGQFSSLHVRGSKIEVAQFVKDLLHHLRALFREGQFN | pKd | 8.93 |
| A6 (ligand, also called IL-13 variant A6 (L10I, V18L, R86M, D87K, T88S, L101H, K104R, K105A)) cytokine: PGPVPPSTAIRELIEELLNITQNQKAPLCNGSMVWSINLTAGMYCAALESLINVSGCSAIEKTQRMLSGFCPHKVSAGQFSSLHVMKSKIEVAQFVKDLLHHLRALFREGQFN | pKd | 8.72 |
| IL-13 variant B4 (R11S, V18I, R86K, D87G, T88S, K89M, L101Y, K104R, K105T) (ligand, also called polypeptide B4) PGPVPPSTALSELIEELINITQNQKAPLCNGSMVWSINPTAGMYCAALESLINVSGCSAIEKTQRMLSGFCPHKVAAGQFSSLHDKGSMIEVAQFVKDLLYHLRTLFREGQFNHHHHHH | pKd | 7.74 |
| B6 (ligand, the sheet prints K at position 89 (same as wild type); also called IL-13 variant B6 (L10T, V18I, D87G, T88S, L101Y, K104R, K105T)) cytokine: PGPVPPSTATRELIEELINITQNQKAPLCNGSMVWSINLTAGMYCAALESLINVSGCSAIEKTQRMLSGFCPHKVSAGQFSSLHVRGSKIEVAQFVKDLLYHLRTLFREGQFN | pKd | 8.23 |

Item A5 (ligand, also called IL-13 variant A5 (R11I, V18I, R86K, D87G, T88S, L101H, K104R, K105A, F107M)) cytokine: PGPVPPSTALIELIEELINITQNQKAPLCNGSMVWSINLTAGMYCAALESLINVSGCSAIEKTQRMLSGFCPHKVSAGQFSSLHVKGSKIEVAQFVKDLLHHLRALMREGQFN has what recorded pKd?
8.53

How about this binder: A11 (ligand, also called IL-13 variant A11 (L10V, V18I, D87S, T88S, L101F, K104R, K105T)) cytokine: PGPVPPSTAVRELIEELINITQNQKAPLCNGSMVWSINLTAGMYCAALESLINVSGCSAIEKTQRMLSGFCPHKVSAGQFSSLHVRSSKIEVAQFVKDLLFHLRTLFREGQFN
10.08

How about this binder: A8 (ligand, also called IL-13 variant A8 (L10I, V18I, D87S, T88S, K89R, L101H, K104R, K105T)) cytokine: PGPVPPSTAIRELIEELINITQNQKAPLCNGSMVWSINLTAGMYCAALESLINVSGCSAIEKTQRMLSGFCPHKVSAGQFSSLHVRSSRIEVAQFVKDLLHHLRTLFREGQFN
8.69
